Tested on: U251 CNS
testDetails: NCI-60 one-dose screen, 48 h
experimentalConditions: 10 µM unless noted
About 83,000 compounds went through this panel and 20% of them were active in at least one assay; those are over-represented in the sample as a whole. The source made the active and inactive calls. How the source made its calls: active means growth percent below 10; inactive means the rest.
Outcome (select one): yes (active), no (inactive)

Examples with answers:
>>> df
                                   molecule  classification
0  C#C[C@@]1(O)[C@@H](CO)O[C@@H](n2cc(Br)c3c(Cl)ccnc32)[C@@H]1O              no
1          CCOC(=O)c1cnc2c(OC)ccc(OC)c2c1Cl              no
2             CCCCC(=O)Nc1nc2ccc(SCCC)cc2s1              no
3  C=C1C(=O)O[C@H]2[C@H]1CC/C(COC(=O)c1cc(OC)c(OC)c(OC)c1)=C\CC[C@@]1(C)O[C@@H]21             yes
4         Clc1ccc2c(c1)nnn1c3ncccc3c(Br)c21              no

Q) Tell me the recorded outcome of this test for "COc1ccc(-c2nnc(SCC(=O)Nc3ccc(C(=O)/C=C/c4ccccc4)cc3)o2)cc1OC" .
A) no

Q) Tell me the recorded outcome of this test for "CC(C)C(=O)Nc1nc2c(s1)CCCc1ccn(S(=O)(=O)c3ccccc3)c1-2" .
A) no

Q) Tell me the recorded outcome of this test for N#Cc1c(N)nc2c(c1N)C(c1ccc(Cl)cc1)C1=C(CCCC1=O)N2c1sc2c(c1C#N)CCCC2 (centres undefined) .
A) no

Q) Tell me the recorded outcome of this test for "C=C1C(=O)O[C@H]2[C@H]1CC/C(COC(=O)OC/C1=C/CC[C@@]3(C)O[C@H]3[C@H]3OC(=O)[C@@H](CN(C)C)[C@@H]3CC1)=C\CC[C@@]1(C)O[C@@H]21" .
A) no

###

Test system: OVCAR-3 ovarian
testDetails: NCI-60 one-dose screen, 48 h (100 = growth as untreated, 0 = no growth, -100 = all killed)
experimentalConditions: 10 µM unless noted
The panel holds about 83,000 compounds, 20% with a hit somewhere; the sample as a whole holds those more often.
# reported growth; entries follow
Respond with the bare value in %.

>>> df
                                   molecule  obsvalue
0  COc1cccc(-c2nc3sccn3c2-c2ccnc(NCCNC(=O)Nc3cccc(C(F)(F)F)c3)n2)c1      66.3
1           Cc1cc(Nc2ccc(Cl)c(Cl)c2)nc(N)n1      98.9
2                Cc1cc(-c2ccccc2)nc2ccccc12       105
3  C/C(=N/NC(=O)Cn1c2ccccc2c2ccncc21)c1cccs1       103
4  FC(F)(F)c1cccc([Si](F)(c2cccc(C(F)(F)F)c2)c2cccc(C(F)(F)F)c2)c1        68

Q) Find the recorded growth belonging to "CC1(C)N=C(N)N=C(N)N1c1ccc(OCC(=O)Nc2ccccc2)c(Cl)c1" and report it.
A) 56.7

Q) Find the recorded growth belonging to CCC(N)(C(=O)O)c1ccc(F)cc1 (stereo unspecified) and report it.
A) 99.9

Q) Find the recorded growth belonging to CC1=C[S+](c2ccccc2)c2cccc3cc4ccccc4c1c23 (stereo unspecified) and report it.
A) -82.9
